- system-under-test: hERG channel (Homo sapiens)
- Construct: expressed in transfected cells; host or cells: CHO (Chinese hamster ovary)
- Sequence (Q12809 whole entry): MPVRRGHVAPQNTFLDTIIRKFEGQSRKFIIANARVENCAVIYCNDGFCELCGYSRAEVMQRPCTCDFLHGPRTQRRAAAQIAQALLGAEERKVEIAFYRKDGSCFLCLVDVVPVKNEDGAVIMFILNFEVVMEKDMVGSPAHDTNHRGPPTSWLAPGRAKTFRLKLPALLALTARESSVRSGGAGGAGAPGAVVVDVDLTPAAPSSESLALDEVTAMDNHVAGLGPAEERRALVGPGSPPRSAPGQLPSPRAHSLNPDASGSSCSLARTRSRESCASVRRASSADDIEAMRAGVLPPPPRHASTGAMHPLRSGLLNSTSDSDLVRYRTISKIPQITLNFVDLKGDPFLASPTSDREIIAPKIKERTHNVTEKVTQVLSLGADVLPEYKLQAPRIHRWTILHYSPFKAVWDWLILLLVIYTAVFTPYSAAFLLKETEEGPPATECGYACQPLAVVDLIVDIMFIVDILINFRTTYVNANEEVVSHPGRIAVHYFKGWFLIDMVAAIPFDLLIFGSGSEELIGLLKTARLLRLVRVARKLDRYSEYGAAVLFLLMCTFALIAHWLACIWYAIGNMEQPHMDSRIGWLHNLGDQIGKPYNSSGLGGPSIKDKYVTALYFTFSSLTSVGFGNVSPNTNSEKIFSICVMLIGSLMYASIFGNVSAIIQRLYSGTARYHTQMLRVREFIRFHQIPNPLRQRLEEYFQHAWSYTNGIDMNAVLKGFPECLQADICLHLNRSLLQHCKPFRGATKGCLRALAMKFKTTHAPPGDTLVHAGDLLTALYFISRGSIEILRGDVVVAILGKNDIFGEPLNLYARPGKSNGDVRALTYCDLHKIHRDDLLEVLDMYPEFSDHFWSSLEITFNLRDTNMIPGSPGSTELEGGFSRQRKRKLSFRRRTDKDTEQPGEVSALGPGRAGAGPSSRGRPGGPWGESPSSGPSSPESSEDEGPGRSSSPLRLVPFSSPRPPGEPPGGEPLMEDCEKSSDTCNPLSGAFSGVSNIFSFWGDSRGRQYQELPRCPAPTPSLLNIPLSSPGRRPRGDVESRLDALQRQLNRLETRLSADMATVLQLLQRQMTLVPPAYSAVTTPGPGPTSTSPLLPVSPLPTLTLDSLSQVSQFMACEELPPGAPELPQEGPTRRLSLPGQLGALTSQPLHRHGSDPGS
- protocol-notes: hERG channel inhibition assay (patch-clamp, CHO hERG cells)
- Format: cell-based
- cond: safety ratio; TLR7 IC50 of ER compounds from Table 1
Please provide measured hERG IC20 / TLR7 IC50 for the entries that follow.

Input: Enter reported hERG IC20 / TLR7 IC50 observed with hERG channel (Homo sapiens) for C[C@@H]1CN(c2ccc(C#N)c3ncccc23)C[C@H](CN2CCN(c3ccc4c(c3)CNCC4)CC2)O1 [Example 9]
Output: 148.0

Input: Please do the same for C[C@@H]1CN(c2ccc(C#N)c3ncccc23)C[C@H](CN2CCN(c3cnc4c(c3)CNCC4)CC2)O1 [Example 21] as well.
Output: >900.9

Input: Please do the same for C[C@@H]1CN(c2ccc(C#N)c3ncccc23)C[C@H](CN2CCN(c3cc4c(cn3)CNCC4)CC2)O1 [Example 19] as well.
Output: >1118.6

Input: Please do the same for C[C@@H]1CN(c2ccc(C#N)c3ncsc23)C[C@H](CN2CCN(c3cnc4c(c3)CNC4)CC2)O1 [Example 8] as well.
Output: >1020.4

Input: Please do the same for C[C@@H]1CN(c2ccc(C#N)c3ncccc23)C[C@H](CN2CCN(c3cc4c(cn3)CCN[C@@H]4C)CC2)O1 (single isomer, unassigned) [Example 74] as well.
Output: >1470.6

Input: Please do the same for C[C@@H]1CN(c2ccc(C#N)c3ncccc23)C[C@H](CN2CCN(c3ccccn3)CC2)O1 [ER-888285, reference compound] as well.
Output: 8.4

Input: Please do the same for C[C@@H]1CN(c2ccc(C#N)c3ncccc23)C[C@H](CN2CC3(C2)CN(c2cnc4c(n2)CCNC4)CCO3)O1 [Example 50] as well.
Output: >2702.7

Input: Please do the same for C[C@@H]1CN(c2ccc(C#N)c3ncccc23)C[C@H](CN2CCN(c3ccc4c(c3)C(O)CNC4)CC2)O1 (stereo partly shown) [Example 22] as well.
Output: >259.7

Input: Please do the same for C[C@@H]1Cc2cc(N3CCN(C[C@H]4CN(c5ccc(C#N)c6ncccc56)C[C@@H](C)O4)CC3)ncc2CN1 (single isomer, unassigned) [Example 70] as well.
Output: >390.6

Input: Please do the same for C[C@@H]1CN(c2ccc(C#N)c3nccnc23)C[C@H](CN2CCN(c3cnc4c(c3)CNC4)CC2)O1 [Example 25] as well.
Output: >520.8

Input: Please do the same for C[C@@H]1CN(c2ccc(C#N)c3ncccc23)C[C@H](CN2CCN(c3cc4c(cn3)C[C@H](C)NC4)CC2)O1 (single isomer, unassigned) [Example 76] as well.
Output: >714.3

Input: Please do the same for C[C@@H]1CN(c2ccc(C#N)c3ncccc23)C[C@H](CN2CCN(c3ccc4c(n3)CNC4)CC2)O1 [Example 30] as well.
Output: >840.3

Input: Please do the same for C[C@@H]1CN(c2ccc(C#N)c3ncccc23)C[C@H](CN2CCN(c3ccncc3)CC2)O1 [ER-888286, reference compound] as well.
Output: 0.3

// provenance: patent EP3807270B1
